Source of measurements: ChEMBL document CHEMBL5604062

testedSystem: Nonstructural protein 3 (Zika virus)
Sequence (A0A024AXB9 whole entry): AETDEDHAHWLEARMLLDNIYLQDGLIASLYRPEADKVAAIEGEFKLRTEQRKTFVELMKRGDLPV
assayExplanation: Functional biochemical assay to identify treatments for viral infectious disease that targets Zika NS2B-NS3 protease. Utilizing a direct enzyme activity measurement method, reading the fluorescence intensity is used to characterize the relative potency of inhibitors as IC50.
Design: species or system PRVABC59
measuredMetric: IC50

INSERT INTO assay_data (molsmiles, observedvalue) VALUES
  ('CN(C)Cc1cc(NC(=O)[C@@H](NC(=O)OCc2ccccc2)c2ccc(OCc3ccccc3)cc2)ccc1Cl', '> 99.5 µM'),
  ('Cc1c(C(=O)Nc2cc(C(=O)Nc3cccnc3)ccn2)cc(C2CC2)n1C', '> 25 µM'),
  ('Cn1ccnc1COc1cccc([C@H](NC(=O)OCc2ccccc2)C(=O)Nc2cccc(CN)c2)c1', '> 99.5 µM'),
  ('NCc1cccc(NC(=O)[C@H](NC(=O)Cn2cccn2)c2ccc(OCc3ccccc3)cc2)c1', '> 99.5 µM');

input: Missing value: IC50, Nonstructural protein 3 (Zika virus), entry N#Cc1c[nH]c2ccc(C(=O)Nc3ccc4c(c3)CNC4)cc12 . Fill in?
output: 0.494 µM

* * *

testedSystem: UniProt:A0A024AXB9
assayExplanation: Functional biochemical assay to identify treatments for viral infectious disease that targets Zika NS2B-NS3 protease. Utilizing a direct enzyme activity measurement method, reading the fluorescence intensity is used to characterize the relative potency of inhibitors as IC50.
Set-up: species or system PRVABC59
pIC50: −log10 of the molar value.
measuredMetric: pIC50

INSERT INTO results (molsmiles, observedvalue) VALUES
  ('O=C(Nc1cc(Cl)cc(C(=O)N2CCC[C@H]2c2nnn[nH]2)c1)OCc1ccccc1', '< 4.00'),
  ('CC(C)(C)c1noc2nc(C(=O)Nc3ccc4c(c3)CNC4)ccc12', '< 4.60'),
  ('Clc1ccc2[nH]cc(Cc3cccc(-c4nn[nH]n4)c3)c2c1', '< 4.00'),
  ('O=C(Nc1cc(Cl)cc(-c2ccc(C3(C(=O)O)CCNCC3)cc2)c1)OCc1ccccc1', '< 4.00');

input: # input molecule: O=C(Nc1cc(Cl)cc(-c2cccc3c(C(=O)O)cccc23)c1)OCc1ccccc1 ; wanted: its pIC50
output: 4.64

* * *

testedSystem: Nonstructural protein 3 (Zika virus)
assayExplanation: Functional biochemical assay to identify treatments for viral infectious disease that targets Zika NS2B-NS3 protease. Utilizing a direct enzyme activity measurement method, reading the fluorescence intensity is used to characterize the relative potency of inhibitors as IC50.
Design: species or system PRVABC59
pIC50: −log10 of the molar value.
measuredMetric: pIC50

INSERT INTO measurements (molsmiles, testedsystem, measuredmetric, observedvalue) VALUES
  ('O=C(O)CCc1ccc(NC(=O)c2cc(Cl)cc(NC(=O)OCc3ccccc3)c2)cc1', 'Nonstructural protein 3 (Zika virus)', 'pIC50', '< 4.00'),
  ('C#C[C@H](Nc1ccc2c(c1)CNC2)c1cccc2c1CCNC2=O', 'Nonstructural protein 3 (Zika virus)', 'pIC50', '< 4.60');

input: # input compound: Cc1c(C(=O)Nc2cc(F)cc(CN)c2)cc(C2CC2)n1C ; wanted: its pIC50
output: 4.05

input: # input compound: Nc1n[nH]c2cc(C(=O)Nc3ccc4c(c3)CNC4)ccc12 ; wanted: its pIC50
output: < 4.60

input: # input compound: Cc1cc(N2CCC(NC(=O)c3cccc4c3CC(=O)N4)CC2)[nH]n1 ; wanted: its pIC50
output: < 4.60

input: # input compound: NCc1cccc(NC(=O)[C@@H](NC(=O)OCc2ccccc2)c2ccc(-c3cccc4nonc34)cc2)c1 ; wanted: its pIC50
output: 5.19
